Cited source for all entries: patent US6716845B2

- TARGET OR TEST SYSTEM: MMP-8, catalytic domain (Homo sapiens, UniProt P22894)
- Construct: Enzyme: 8 nM catalytic domain (Met80-Gly242) of human neutrophil collagenase (MMP-8); made in house
- Sequence (P22894 100-262 limits assumed): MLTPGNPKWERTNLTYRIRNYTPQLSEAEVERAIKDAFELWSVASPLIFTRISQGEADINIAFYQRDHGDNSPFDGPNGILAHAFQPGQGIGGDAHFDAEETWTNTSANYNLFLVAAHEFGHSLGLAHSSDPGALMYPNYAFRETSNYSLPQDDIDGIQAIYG
- ASSAY PROTOCOL: Inhibition of MMP-8 catalytic domain, fluorogenic DNP-heptapeptide substrate cleavage
- Format: biochemical
PARAMETER: IC50
Include the unit right after the number.

query: Provide IC50 value for the following compound: `O=C1NC(=O)C(NCCN2CCN(c3ncccn3)CC2)(c2ccc(Oc3ccc(Br)cc3)cc2)C(=O)N1`
result: 9 nM

====

Attribute: IC50
- TARGET OR TEST SYSTEM: MMP-8, catalytic domain (Homo sapiens)
- Construct: Enzyme: 8 nM catalytic domain (Met80-Gly242) of human neutrophil collagenase (MMP-8); made in house
- ASSAY PROTOCOL: Inhibition of MMP-8 catalytic domain, fluorogenic DNP-heptapeptide substrate cleavage
- Format: biochemical
- EXPERIMENTAL PARAMETERS: catalytic domain of human neutrophil collagenase (MMP-8); substrate DNP-Pro-Leu-Gly-Leu-Trp-Ala-D-Arg-NH2; 25° C.; read-out: IC50 Values of MMP-Inhibitor (vs. MMP-8, catalytic domain)
The response must be a number in nM with no trailing unit.

MOLECULE: O=C(O)CCC(=O)N1CCN(C2(c3ccc(Oc4ccccc4)cc3)C(=O)NC(=O)NC2=O)CC1 [Example 3]
UNIT INFO: nM
MEASUREMENT: 11

MOLECULE: O=C1NC(=O)C(c2ccc(Oc3ccc(Cl)c(Cl)c3)cc2)(N2CCN(CCOCCO)CC2)C(=O)N1 [Example 2 - no. 4]
UNIT INFO: nM
MEASUREMENT: 7

MOLECULE: O=C1NC(=O)C(c2ccc(Oc3ccc(Cl)cc3)cc2)(N2CCN(CC3COC(=O)O3)CC2)C(=O)N1 (centres unmarked) [Example 2 - no. 2]
UNIT INFO: nM
MEASUREMENT: 9

query: Quick one: give measured IC50 for O=C1NC(=O)C(c2ccc(Oc3ccc(Cl)cc3)cc2)(N2CCN(CCOCCO)CC2)C(=O)N1 [Example 2 - no. 1]
result: 16

query: For the molecule O=C1NC(=O)C(c2ccc(Sc3ccccc3)cc2)(N2CCN(CCOCCO)CC2)C(=O)N1 [Example 2 - no. 5] , give its reported IC50.
result: 19

query: Give reported IC50 value for O=C1NC(=O)C(c2ccc(Oc3ccc(Cl)cc3)cc2)(N2CCN(CC(O)CO)CC2)C(=O)N1 (centres unmarked) [Example 1]
result: 11

query: State, in one line, measured IC50 of NS(=O)(=O)c1ccc(CN2CCN(C3(c4ccc(Oc5ccc(Br)cc5)cc4)C(=O)NC(=O)NC3=O)CC2)cc1 [Example 2 - no. 11]
result: 11

query: Quote IC50 reported for CCOCC(O)CN1CCN(C2(c3ccc(Oc4ccc(Cl)cc4)cc3)C(=O)NC(=O)NC2=O)CC1 (centres unmarked) [Example 2 - no. 3] please.
result: 15
